B1: tRNA (parent)
chain: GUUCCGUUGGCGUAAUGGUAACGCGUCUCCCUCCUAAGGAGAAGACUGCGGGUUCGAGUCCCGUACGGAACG

variants of: B1; assay: yeast fitness relative to wild type (ratio to wild type); higher = fitter; tRNA-Arg(CCU), competitive growth, 37 C, YPD
Fewer inactive variants are shown than the library holds.
Reported yeast fitness is given for each of the following variants.
Quick one: just the number, no unit, thanks!

Here are 3 variants together with their reported answers.
INSERT INTO measurements (sequencetext, reportedmeasurement) VALUES
  ('GUACCGUUGGCGUAAUGGUAACGCGUCUCCCUCCUAAGGAGAAGACUGCGGGUCCGAGUCCCGUACGGAACG [U3A U54C]', 0.777),
  ('GUUCCGUUGGCGUAAUAGUAAAGCGUCUCCCUCCUAAGGAGAAGCUUGCGGGUUCGAGUCCCGUACGGAACG [G17A C22A A45C C46U]', 0.578),
  ('GUUCCGUUGGCGUAAUGGUAACGCGUCUCCCUCCUAAGGAGUAGACUGCGGGUUCGAGUCCCAUGCGGAACG [A42U G63A A65G]', 0.572);

Qu. // fetch yeast fitness given entry GUUCCGUUGGCGUAAAGGUAACGCGUCUCCCUCCUAAGGAGAAGACUGCGGGUUCGAGUCCUGUACGGAACG [U16A C62U]
Ans. 0.918

Qu. Quote yeast fitness reported for GUUGCGUUGGCGUAAUGGUAACGCGUCUCCCCCCUAAGGAGAAGACUGCGGGUUCGAGUCCCGUACGGAUCG [C4G U32C A70U] please.
Ans. 0.742

Qu. For the variant GUUCCGUUGGCGUAAUGGUUACGCGUCUCCCUCCUAAGGAGAAGACUGCGGGUUCGAGUACCGUACGGAACG [A20U C60A] , give its reported yeast fitness.
Ans. 0.609

Qu. Note yeast fitness for the variant shown: GUUGCGUUGGCCUAAUGGUAACGCGUCUCCCUCCUAAGGAGAAGACUGCGGGUUCGAGUCCCGUACGGAACG [C4G G12C]
Ans. 0.676

Qu. # return recorded yeast fitness for entry GUUCCGUUGGCGUAAUGGUAACGCGUCUCCCUCCUAACGAGAAGACUGCGGGUUCUAGUCCCGUACGGAACG [G38C G56U]
Ans. 0.633

Qu. Identify yeast fitness associated with the variant GUUCCGUUGGCGUAUUAGUAACGCGUCUCCCUCCUAAGGAGAAGAUUGCGGGUUCGAGUCCUGUACGGAACG [A15U G17A C46U C62U]
Ans. 0.865

Qu. Indicate its recorded yeast fitness; the variant in question is GUUCCGUUGGCGUAUUGGUAACGCGUCUCCCUCCUAAGGAGAACACUGCGGGUUCGAGUCCCGUACGGAACG [A15U G44C]
Ans. 0.727

Qu. Give a short answer stating reported yeast fitness for GUUCCGUUGGCGUAAUGGUAAGGCGUCUCCCUCCUAAGGAGAAGACUGCGGGUUUGAGUCCCGUACGGAACG [C22G C55U] .
Ans. 0.739

Qu. State, in one line, measured yeast fitness of GUUUCGUUGGCGUAAUGGUAACGCGACUCCCUCCUAAGGAGAAGCCUGCGGGUUCGAGUCCCGUACGGAACG [C4U U26A A45C]
Ans. 0.53
